Assay system: Glycine receptor subunit alpha-1 (Rattus norvegicus)
Experiment summary: Displacement of [3H]strychnine from GlyR high affinity site in Wistar rat spinal cord by scintillation spectrometry in presence of 10 uM glycine
Measured endpoint: IC50 (nM)
Your answer is read as nM, so omit the unit and give the number.

Reported IC50 ( Cn1c(C(=O)O[C@H]2C[C@H]3CC[C@@H](C2)N3)cc2ccccc21 ) = 1.07

----------
Assay system: Glycine receptor subunit alpha-1 (Rattus norvegicus)
Sequence (P07727 whole entry): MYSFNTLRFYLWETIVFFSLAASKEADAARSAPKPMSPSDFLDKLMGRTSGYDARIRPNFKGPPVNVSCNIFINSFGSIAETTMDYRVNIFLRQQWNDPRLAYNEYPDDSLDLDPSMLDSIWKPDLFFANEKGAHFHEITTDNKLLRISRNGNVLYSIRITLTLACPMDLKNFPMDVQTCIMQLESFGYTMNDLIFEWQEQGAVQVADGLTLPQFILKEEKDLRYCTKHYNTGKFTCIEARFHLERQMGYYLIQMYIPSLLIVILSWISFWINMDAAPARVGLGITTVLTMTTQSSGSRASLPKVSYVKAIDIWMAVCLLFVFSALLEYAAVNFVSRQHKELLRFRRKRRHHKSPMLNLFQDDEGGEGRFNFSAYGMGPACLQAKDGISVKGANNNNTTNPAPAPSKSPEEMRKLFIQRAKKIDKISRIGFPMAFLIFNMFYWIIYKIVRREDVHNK
Experiment summary: Displacement of [3H]strychnine from GlyR in Wistar rat spinal cord by scintillation spectrometry
Measured endpoint: pIC50
Field pIC50 (float): negative decimal logarithm of the concentration in molar.

Reported pIC50 ( CN1[C@@H]2CC[C@H]1C[C@@H](OC(=O)c1ccc[nH]1)C2 ) = 4.95

Reported pIC50 ( Cn1c(C(=O)O[C@H]2C[C@H]3CC[C@@H](C2)N3)cc2ccccc21 ) = 7.47

Reported pIC50 ( O=C(O[C@H]1C[C@H]2CC[C@@H](C1)N2)c1ccco1 ) = 7.10

Reported pIC50 ( O=C(O[C@H]1C[C@H]2CC[C@@H](C1)N2)c1cnc2ccccc2c1 ) = 6.78

Reported pIC50 ( O=C(O[C@H]1C[C@H]2CC[C@@H](C1)N2)c1cc2ccccc2[nH]1 ) = 6.63
